# assay.target: interaction between p53 and MDM2 proteins (recombinant GST-tagged MDM2) (Homo sapiens)
# experiment.summary: HTRF assay of inhibition of the p53-MDM2 interaction (GST-MDM2 / biotinylated p53 peptide)
# Assay type: binding
# condition.notes: HTRF, 0.02% BSA, 37° C. 1 h
Counter-ions that a name gives are not always drawn.
Quick rule for you: IC50 under 10 nM gets satisfied, anything else gets not satisfied.

Just wondering, is IC50 of COc1cc(C(=O)OCC(=O)NCC(O)CO)ccc1NC(=O)[C@@H]1N[C@@H](CC(C)(C)C)[C@](C#N)(c2ccc(Cl)cc2F)[C@H]1c1cccc(Cl)c1F (some centres unmarked) below 10 nM?
not satisfied

Just wondering, is IC50 of `COc1cc(C(=O)NCCOCCOCCOCCN)ccc1NC(=O)[C@@H]1N[C@@H](CC(C)(C)C)[C@](C#N)(c2ccc(Cl)cc2F)[C@H]1c1cccc(Cl)c1F` below 10 nM?
satisfied

Just wondering, is IC50 of CCN(CC)CCNC(=O)c1ccc(NC(=O)[C@@H]2N[C@@H](CC(C)(C)C)[C@](C#N)(c3ccc(Cl)cc3F)[C@H]2c2cccc(Cl)c2F)c(OC)c1 [Example 23, hydrochloride] below 10 nM?
satisfied

Just wondering, is IC50 of `COc1cc(C(=O)OCC(=O)N[C@@H](CCC(=O)OCc2ccccc2)C(=O)OCc2ccccc2)ccc1NC(=O)[C@@H]1N[C@@H](CC(C)(C)C)[C@](C#N)(c2ccc(Cl)cc2F)[C@H]1c1cccc(Cl)c1F` below 10 nM?
not satisfied

Just wondering, is IC50 of COc1cc(C(=O)N(C)C[C@H](O)[C@@H](O)[C@H](O)[C@H](O)CO)ccc1NC(=O)[C@@H]1N[C@@H](CC(C)(C)C)[C@](C#N)(c2ccc(Cl)cc2F)[C@H]1c1cccc(Cl)c1F [Example 55, hydrochloride] below 10 nM?
satisfied

---

List of IC50 values.
# assay.target: interaction between p53 and MDM2 proteins (recombinant GST-tagged MDM2) (Homo sapiens, UniProt Q00987)
# Sequence (Q00987 whole entry): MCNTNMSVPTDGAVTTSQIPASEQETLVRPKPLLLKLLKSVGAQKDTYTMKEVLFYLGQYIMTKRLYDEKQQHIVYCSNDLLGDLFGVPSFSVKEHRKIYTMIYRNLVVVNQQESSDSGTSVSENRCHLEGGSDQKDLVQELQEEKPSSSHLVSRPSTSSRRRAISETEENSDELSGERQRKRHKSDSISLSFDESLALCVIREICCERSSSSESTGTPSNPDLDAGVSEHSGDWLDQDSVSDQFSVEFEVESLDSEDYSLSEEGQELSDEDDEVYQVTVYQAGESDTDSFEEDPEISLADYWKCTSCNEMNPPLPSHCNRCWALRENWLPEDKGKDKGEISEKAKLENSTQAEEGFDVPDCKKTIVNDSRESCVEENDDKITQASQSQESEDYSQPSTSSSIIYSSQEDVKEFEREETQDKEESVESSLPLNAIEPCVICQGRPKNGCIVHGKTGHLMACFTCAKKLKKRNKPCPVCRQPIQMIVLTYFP
# experiment.summary: HTRF assay of inhibition of the p53-MDM2 interaction (GST-MDM2 / biotinylated p53 peptide);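 also: FRET read-out from Eu-labelled anti-GST antibody to streptavidin-APC, with 90 nM N-terminally biotinylated p53 peptide and 160 ng/ml GST-MDM2 in Tris-borate saline containing 1 mM DTT, 384-well format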
# Assay type: binding
# condition.notes: HTRF, 0.02% BSA, 37° C. 1 h
Where a name gives a salt, the structure may show the parent alone.
Give a bare numeral; the unit nM is implied.

Answered examples (3):
| molecule | IC50, nM |
| --- | --- |
| COc1cc(C(=O)NCCN2CCN(C)CC2)ccc1NC(=O)[C@@H]1N[C@@H](CC(C)(C)C)[C@](C#N)(c2ccc(Cl)cc2F)[C@H]1c1cccc(Cl)c1F [Example 26, hydrochloride] | 8.67 |
| COc1cc(C(=O)OCCOCCN(C)C)ccc1NC(=O)[C@@H]1N[C@@H](CC(C)(C)C)[C@](C#N)(c2ccc(Cl)cc2F)[C@H]1c1cccc(Cl)c1F [Example 46, hydrochloride] | 14.2 |
| COCCOCCOCCOC(=O)COC(=O)c1ccc(NC(=O)[C@@H]2N[C@@H](CC(C)(C)C)[C@](C#N)(c3ccc(Cl)cc3F)[C@H]2c2cccc(Cl)c2F)c(OC)c1 [Example 72] | 20.3 |

Requested field: IC50. Item: COc1cc(C(=O)OCCN(C)C)ccc1NC(=O)[C@@H]1N[C@@H](CC(C)(C)C)[C@](C#N)(c2ccc(Cl)cc2F)[C@H]1c1cccc(Cl)c1F [Example 7]
14.6
